Exercise: for every item that follows, state its recorded Murine CTGF kon.
# targetOrSystem: T1, Murine CTGF (Mus musculus, UniProt P29268)
# T1 construct: purchased Abbexa
# T1 sequence (P29268 26-348): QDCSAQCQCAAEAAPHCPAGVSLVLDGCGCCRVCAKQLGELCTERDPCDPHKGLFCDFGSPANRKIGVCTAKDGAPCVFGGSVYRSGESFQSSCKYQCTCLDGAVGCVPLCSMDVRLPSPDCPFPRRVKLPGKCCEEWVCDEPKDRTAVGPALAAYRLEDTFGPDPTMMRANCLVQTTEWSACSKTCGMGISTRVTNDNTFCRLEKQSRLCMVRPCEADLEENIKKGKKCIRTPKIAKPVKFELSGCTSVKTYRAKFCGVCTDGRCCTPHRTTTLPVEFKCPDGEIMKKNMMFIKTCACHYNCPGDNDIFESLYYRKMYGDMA
# experimentalProtocol: SPR binding kinetics and affinity, murine CTGF
# particulars: 25° C., 1:1 binding model
Give the quantity in M⁻¹ s⁻¹, number only.

**Q:** Fill in the blank: the reported Murine CTGF kon of SEQ ID NO: 8: optimized CTGF-binding hNGAL lipocalin mutein (protein, lipocalin mutein) QDSTSDLIPAPPLSKVPLQQNFQDNQFQGKWYVVGLAGNYGLRTDKRPSKMFATIYELKEDKSYDVTSVRFEQERCHYTIRTFVPGSQPGEFTSGNIGNYPGSYSTLVRVVSTNYNQHAMVFFKSVIQNREYFAITLYGRTKELTSELKENFIRFSKSLGLPENHIVFPVPIDQCIDG is ____.
**A:** 72000

**Q:** Fill in the blank: the reported Murine CTGF kon of SEQ ID NO: 9: parent CTGF-binding hNGAL lipocalin mutein (protein, lipocalin mutein) QDSTSDLIPAPPLSKVPLQQNFQDNQFHGKWYVVGLAGNKILRIDKQPAKMFATIYELKEDKSYDVTSVRFEARSCSYTIKTFVPGSQPGEFTAGNIKSAPGQTSTLVRVVSTNYNQHAMVFFKHVSQNRETFVITLYGRTKELTSELKENFIRFSKSLGLPENHIVFPVPIDQCIDG is ____.
**A:** 133000

**Q:** Fill in the blank: the reported Murine CTGF kon of SEQ ID NO: 35: optimized CTGF-binding hNGAL lipocalin mutein (protein, lipocalin mutein) QDSTSDLIPAPPLSKVPLQQNFQDNQFQGKWYVVGWAGNVKLREDKQPLKMSATIYELKEDKSYDVTEVVFEQKKCHYIIKTFVPGSQPGEFTAGDIKSPPGYTSSLVRVVSTNYNQHAMVFFKKVSQNREFFWITLYGRTKELTSELKENFIRFSKSLGLPENHIVFPVPIDQCIDG is ____.
**A:** 128000

**Q:** Fill in the blank: the reported Murine CTGF kon of SEQ ID NO: 33: optimized CTGF-binding hNGAL lipocalin mutein (protein, lipocalin mutein) QDSTSDLIPAPPLSKVPLQQNFQDNQFQGKWYVVGWAGNAKLREDKQPFKMSATIYELKEDKSYDVTEVVFEQKKCHYIIKTFVPGSQPGEFTEGNYKRRPRLWSDLVRVVSTNYNQHAMVFFKKVHQNREFFWITLYGRTKELTSELKENFIRFSKSLGLPENHIVFPVPIDQCIDG is ____.
**A:** 176000
